Cited source for all entries: PubChem BioAssay AID179

Test system: CEM cells HIV-1 protection, formazan growth assay
methodNotes: NCI AIDS Antiviral Assay
measurementSetup: measured here: growth of uninfected CEM cells
Procedure: The ability of compounds to protect human CEM cells from HIV-1 infection is measured as a screen for new compounds capable of inhibiting the HIV virus. Five concentrations of drug were tested on uninfected and infected cells and cell growth was measured using a soluble formazan assay. […] Compounds that provided at least 50% protection were retested. Compounds that provided at least 50% protection on retest were listed as moderately active. […]
pIC50: −log10 of the molar value.
Measured pIC50, listed per entry.

Reference set (3 entries):
Requested field: pIC50. Item: "COc1ccc(CC2C(=O)NC(=O)NC2=O)cc1OC"
< 3.70

Look up pIC50: CC(C)C(NCc1c(O)ccc2c(-c3ccccc3)cc(=O)oc12)C(=O)O (stereo unspecified)
< 3.70

Bench note: what pIC50 did COC(=O)[C@@H]1C(CO)[C@H](n2cc(C)c(=O)[nH]c2=O)C1(C)C (stereo partly specified) show?
< 3.36

Others:
What value of measured pIC50 is listed for O=C1C2CCSCN2C(=O)N1c1ccccc1 (stereo unspecified) ?
< 4.39

Which pIC50 is reported for this molecule? "O=NNc1ccc(S(=O)(=O)c2ccccc2)cn1"
< 3.70

What pIC50 value was documented for this molecule, O=C1CC2SC(COCc3ccccc3)(CCN2Cc2ccccc2)C1 (stereo unspecified) ?
4.38

---

System: CEM cells HIV-1 protection, formazan growth assay
methodNotes: NCI AIDS Antiviral Assay;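 active = compounds giving half or more protection of infected cells from virus-caused growth loss, again on retest; inactive = the rest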
The reply should name one outcome from active, inactive

Previously resolved entries follow.
What outcome does the record of this test show for "CCN(CC)c1ccc2nc3c4ccccc4c(=O)cc-3n(-c3ccccc3)c2c1" ?
inactive

Record lookup: outcome of this test for COC(=O)C1CCOC(C)N1C(=O)OC(C)(C)C (configuration not stated) ?
inactive

Short answer needed: outcome of this test for "O=C(O)c1cc2ccccc2oc1=O" ?
inactive

Which result was noted for this compound in the test: O=C1CN(C(=O)C2CCCN2C(=O)C2CCCN2)C(=O)CN1 (configuration not stated)
inactive

# lookup: test call for "C=C1C[C@H]2[C@@H]3C=C(C)C4=CC(=O)CC[C@]4(C)[C@H]3CC[C@]2(C)[C@@]1(OC(C)=O)C(C)=O"
inactive

What did this assay record as the result for "N#C/C(=C\c1ccc(-c2ccccc2)cc1)c1ccccc1" ?
inactive

Which result was noted for this compound in the test: "CNCCCC1c2ccccc2C=Cc2ccccc21"
inactive

# fetch the recorded call for N/N=C1\CC(c2ccccc2)Oc2ccccc21 (configuration not stated) here
inactive

Short answer needed: outcome of this test for CC1(C)OC2O[C@H](C3OC[C@H]4O[C@@H](n5ccc(=O)[nH]c5=O)C(O)[C@H]4N3O)[C@@H]3OC(C)(C)O[C@@H]3C2O1 (some centres not stated) ?
inactive

Answer briefly: the call reported for "Cc1cc(N(CCC#N)CCC#N)ccc1/C=N/NC(=O)c1cc(Cl)ccc1O" in this assay.
inactive

Continuing:
What did this assay record as the result for CCCCNC1C2CCC(C)(C1O)C2(C)C (configuration not stated) ?
inactive

Query: recorded result category for CC(=O)N(CC1CCCN(C)C1)C12CC3CC(CC(C3)C1)C2 (configuration not stated) in this test
inactive

Assay outcome for "O=c1oc2ccccc2c(-c2ccc(O)cc2)c1Oc1ccccc1" : what was it?
inactive

What is the recorded call for this compound in the test? "NC(=O)c1cccc(NC=O)c1"
inactive

Hello, I am checking results. What call was entered for "CCN1CCCn2c(=S)[nH]c3cc(Br)cc1c32" ?
active

Could you please tell me the result logged for "CCc1occc(=O)c1O" in this assay?
inactive

Tell me the assay call for O=S(=O)(O)C(O)CCC(O)S(=O)(=O)O (configuration not stated) please.
inactive

---

System: CEM cells HIV-1 protection, formazan growth assay
methodNotes: NCI AIDS Antiviral Assay
measurementSetup: measured here: growth of uninfected CEM cells
Reported values of IC50 for individual entries
Answer with a number only, understood to be in µM.

Any idea what IC50 was measured for CSC1SCC2C(=O)N(C)C3(CC3C)C(=O)OCC(NC(=O)c3nc4ccccc4cc3O)C(=O)NC(C)C(=O)N(C)C1C(=O)N(C)C1(CC1C)C(=O)OCC(NC(=O)c1nc3ccccc3cc1O)C(=O)NC(C)C(=O)N2C (centres undefined) ?
0.00263

Given the compound CNC(=O)C1(C#N)C(c2ccccc2)C(C#N)(C(=O)NC)C1c1ccccc1 (centres undefined) , what is its reported IC50?
166

Bench note: what IC50 did "O=C(Nc1ccccc1)O/N=C1/CCCC/C1=C\c1ccccc1" show?
39.8

Any idea what its IC50 is? The compound is O=C(C#Cc1ccccc1)N1c2ccccc2CC1c1c[nH]c2ccccc12 (centres undefined)
8.32

New cases:
Entry "CNC(SC)=C1C(=O)OC(C)(C)OC1=O" : reported IC50 = ?
457

Consider the compound shown here: "N#C/C(=C\c1c[nH]c2ccccc12)C(=O)c1ccc(O)c(O)c1" What is its recorded IC50?
46.8

Form field: reported IC50 of "CC1C2=C(CC(C)(C)CC2=O)NC2=C1C(=O)CC(C)(C)C2"
166

What does the record list as IC50 for "COc1ccc(CCCNC(=O)Cc2cc(OC)c(OC)cc2CO)cc1OC" ?
17.8

---

Tested on: CEM cells HIV-1 protection, formazan growth assay
methodNotes: NCI AIDS Antiviral Assay;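 active means compounds giving half or more protection of infected cells from virus-caused growth loss, again on retest; inactive means the rest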
Allowed answers: active, inactive

Solved entries:
Given "COC(=O)c1cc2nc(NC(C)=O)sc2n1C" , state the outcome it received in this test.
inactive

Record lookup: outcome of this test for "COc1ccc(/C=C(/C(C)=O)c2ccccc2)cc1" ?
inactive

# lookup: test call for Cc1ccc(NC(=O)C(=O)C2C(=O)C3=C(CC2(C)C)NC2C=CC=CC2S3)c(C)c1 (configuration not stated)
inactive

// outcome(item) with item = "c1c2c(cc3c1OCN(C1CC1)C3)OCN(C1CC1)C2"
inactive

Recorded test call requested for CN(C)CCC1(c2ccccc2)C=Cc2ccccc21 (configuration not stated)
inactive

***
Assay outcome for Cc1cccc(C)c1NC(=O)CCCC(=O)C1/C(=N/NC(=O)CC#N)CCC/C1=N\NC(=O)CC#N (configuration not stated) : what was it?
inactive

Status in this test for "CC[N+](C)(C)C1=C([O-])C(F)(F)C1=O" ?
inactive

Record lookup: outcome of this test for "CCCN(CCC)C(=O)c1nc(N)nc(-c2ccc(OC)cc2)c1-c1ccc(OC)cc1" ?
inactive

# lookup: test call for "COc1cc(OC)c(/C=C\c2ccnc3ccccc23)c(OC)c1"
inactive

For "COc1cccc(/C=N/[N-]C(=O)c2ccncc2)c1[O-].[Mn+2].[OH3+]" , which call appears in the assay record?
inactive

What classification did O=C1C(Cl)N(c2ccccc2Cl)C1c1c[nH]c2ccccc12 (configuration not stated) end up with in this test?
inactive

Identify the outcome logged in this assay for the compound shown: "O=C(Nc1ccccc1F)c1c(O)nc2sccn2c1=O"
inactive

I would be grateful if you could indicate the recorded call for "COc1ccc(Nc2nc3ccc(C(F)(F)F)cc3nc2-c2ccccc2)cc1OC" .
inactive

---

Test system: CEM cells HIV-1 protection, formazan growth assay
methodNotes: NCI AIDS Antiviral Assay
Experimental: The ability of compounds to protect human CEM cells from HIV-1 infection is measured as a screen for new compounds capable of inhibiting the HIV virus. Five concentrations of drug were tested on uninfected and infected cells and cell growth was measured using a soluble formazan assay. […] Compounds that provided at least 50% protection were retested. Compounds that provided at least 50% protection on retest were listed as moderately active. […]
pEC50: −log10 of the molar value.
measurementLabel: pEC50

Previously resolved entries follow.
State its pEC50 on CEM cells HIV-1 protection, formazan growth assay: "O=C(N/N=C/c1ccc(Br)cc1)N/N=C/c1ccc(Br)cc1"
< 3.70

Form field: pEC50 recorded for "CC(=O)NCCSSSCCNC(C)=O" with CEM cells HIV-1 protection, formazan growth assay (enter value)
< 3.70

Could you share what pEC50 was measured for "S=C=NC/C(Cl)=C/Cl" , tested on CEM cells HIV-1 protection, formazan growth assay?
< 3.70

I'm curious: which pEC50 was measured for Cc1ccc(C2=Nc3ccccc3SC(c3cccc([N+](=O)[O-])c3)C2)cc1 (stereo not drawn) tested on CEM cells HIV-1 protection, formazan growth assay?
< 4.47

Return pEC50 measured with CEM cells HIV-1 protection, formazan growth assay given this molecule: CC1=NN(C(=O)CC(=O)Nc2ccccc2)C(=O)C1N=Nc1ccc(C(=O)O)cc1 (stereo not drawn)
< 3.70

***
Test system CEM cells HIV-1 protection, formazan growth assay; read-out pEC50; what value for CC1(C)OC2C(=O)OC(COCc3ccccc3)C2O1 (stereo not drawn) ?
< 4.44

Lab note: need pEC50 with CEM cells HIV-1 protection, formazan growth assay for entry CNC(=O)C1(C#N)C(c2ccccc2)C(C#N)(C(=O)NC)C1c1ccccc1 (stereo not drawn) , please look it up.
< 3.70

Lab note: need pEC50 for "O=c1oc2ccccc2c(O)c1C(c1ccc(-c2ccccc2)cc1)c1c(O)c2ccccc2oc1=O" on CEM cells HIV-1 protection, formazan growth assay, anyone have it?
< 3.70
